Attribute: GI50
Tested on: HUVECs
Assay: ALAMARBLUE proliferation assay in HUVECs
Format: cell-based, human
Details: Homo sapiens, HUVEC, 48 h, 50% growth inhibitory concentration, alamarBlue
readout: GI50

C#CCOc1cc(/C=C2\COc3cc(OC)c(OC)c(OC)c3C2=O)ccc1OC [Compound 11g] = 21 µM
COc1ccc(CC2COc3cc(O)c(O)c(O)c3C2=O)cc1O (centres unmarked) = 124 µM
COc1ccc(/C=C2\COc3cc(OC)c(OC)c(OC)c3C2=O)cc1OCc1ccccc1 [Compound 11b] = 4 µM
COC(=O)c1cc(/C=C2\COc3cc(OC)c(OC)c(OC)c3C2=O)ccc1OC [Compound 11r] = 3.2 µM
COc1ccc(CCC(=O)c2c(O)cc(OC)c(OC)c2OC)cc1OC = 74 µM
COc1cc2c(c(OC)c1OC)C(=O)/C(=C/c1ccc(OCc3ccccc3)c(OCc3ccccc3)c1)CO2 [Compound 11t] = 64 µM
COc1ccc(CC2COc3cc(OC)c(OC)c(OC)c3C2=O)cc1OC(=O)[C@H](Cc1ccccc1)NC(=O)OC(C)(C)C (some centres unmarked) = 1 µM
COC(=O)c1cc(CC2COc3cc(OC)c(OC)c(OC)c3C2=O)ccc1OC (centres unmarked) = 27 µM

---

Test system: HUVECs
Assay: ALAMARBLUE proliferation assay in HUVECs
Type: cell-based, human
Conditions: Homo sapiens, HUVEC, 48 h, 50% growth inhibitory concentration, alamarBlue
readout: GI50 (µM)

COc1ccc(/C=C2\COc3cc(OC)c(OC)c(OC)c3C2=O)cc1OCC(=O)OC(C)(C)C [Compound 11l] = 27
COc1ccc(CCC(=O)c2c(O)cc(OC)c(OC)c2OC)cc1O = 102
COc1ccc(/C=C2\Cc3cc(OC)c(OC)c(OC)c3C2=O)cc1O = 19
COc1cc2c(c(OC)c1OC)C(=O)/C(=C/c1ccc(OCc3ccccc3)cc1)CO2 [Compound 11i] = 284
C=CCOc1cc(/C=C2\COc3cc(OC)c(OC)c(OC)c3C2=O)ccc1OC [Compound 11c] = 11
COc1cc(/C=C2\COc3cc(OC)c(OC)c(OC)c3C2=O)cc(OC)c1OC [Compound 11u] = 10.4
COc1cc2c(c(OC)c1OC)C(=O)/C(=C/c1ccc([N+](=O)[O-])cc1)CO2 [Compound 11j] = 6
COc1ccc(/C=C2\COc3cc(OC)c(OC)c(OC)c3C2=O)cc1O [Compound 11a] = 8

---

System: HUVECs
Experiment: ALAMARBLUE proliferation assay in HUVECs
Assay type: cell-based, human
Settings: Homo sapiens, HUVEC, 48 h, 50% growth inhibitory concentration, alamarBlue
Please assign not satisfied whenever GI50 is at or above 40 µM, and satisfied whenever it is below.

COc1ccc(CC2COc3cc(OC)c(OC)c(OC)c3C2=O)cc1C(=O)O (centres unmarked) = not satisfied
C=C(Cc1ccc(OC)c(O)c1)C(=O)c1c(O)cc(OC)c(OC)c1OC = satisfied
COc1ccc(/C=C/C(=O)c2c(O)cc(OC)c(OC)c2OC)cc1OCc1ccccc1 = not satisfied
COc1cc2c(c(OC)c1OC)C(=O)/C(=C/c1ccc(O)c(O)c1)CO2 [Compound 11n] = satisfied
COc1ccc(/C=C2\COc3cc(OC)c(OC)c(OC)c3C2=O)cc1[N+](=O)[O-] [Compound 11h] = satisfied
COc1cc2c(c(OC)c1OC)C(=O)C(Cc1ccccc1)CO2 (centres unmarked) = not satisfied
COc1ccc(/C=C2\COc3cc(OC)c(OC)c(OC)c3C2=O)cc1OCCN1CCCC1 [Compound 11k] = satisfied

Taken from patent US10738024B2.
